From: paper PMC6797808

Target: PHL (Photorhabdus asymbiotica)
Experiment: Isothermal titration calorimetry of PHL with ligands
Format: binding
Conditions: ITC at 25 °C
METRIC: −ΔH (kcal/mol)

[[record]]
compound = "C[C@@H]1O[C@@H](CCN=[N+]=[N-])[C@@H](O)[C@H](O)[C@@H]1O [Azide 1]"
metric = "−ΔH"
experimental_result = 10.3

[[record]]
compound = "CO[C@@H]1O[C@@H](C)[C@@H](O)[C@@H](O)[C@@H]1O [α-Me-Fuc, methyl α-L-fucopyranoside, reference compound]"
metric = "−ΔH"
experimental_result = 14.1

[[record]]
compound = "C[C@@H]1O[C@@H](CCn2cc(COCC(COCc3cn(CC[C@@H]4O[C@@H](C)[C@@H](O)[C@@H](O)[C@@H]4O)nn3)(COCc3cn(CC[C@@H]4O[C@@H](C)[C@@H](O)[C@@H](O)[C@@H]4O)nn3)COCC(COCc3cn(CC[C@@H]4O[C@@H](C)[C@@H](O)[C@@H](O)[C@@H]4O)nn3)(COCc3cn(CC[C@@H]4O[C@@H](C)[C@@H](O)[C@@H](O)[C@@H]4O)nn3)COCc3cn(CC[C@@H]4O[C@@H](C)[C@@H](O)[C@@H](O)[C@@H]4O)nn3)nn2)[C@@H](O)[C@H](O)[C@@H]1O"
metric = "−ΔH"
experimental_result = 17.1

[[record]]
compound = "C[C@@H]1OC(CCCCC2O[C@@H](C)[C@@H](O)[C@@H](O)[C@@H]2O)[C@@H](O)[C@H](O)[C@@H]1O (stereo partly drawn) [Difucoside 5, 1,4-bis(fucopyranosyl)butane]"
metric = "−ΔH"
experimental_result = 8.96

[[record]]
compound = "C[C@@H]1O[C@@H](CCn2cc(COCC(COCc3cn(CC[C@@H]4O[C@@H](C)[C@@H](O)[C@@H](O)[C@@H]4O)nn3)(COCc3cn(CC[C@@H]4O[C@@H](C)[C@@H](O)[C@@H](O)[C@@H]4O)nn3)COCc3cn(CC[C@@H]4O[C@@H](C)[C@@H](O)[C@@H](O)[C@@H]4O)nn3)nn2)[C@@H](O)[C@H](O)[C@@H]1O"
metric = "−ΔH"
experimental_result = 12.9

[[record]]
compound = "C[C@H](O)[C@@H](O)[C@@H](O)[C@H](O)C=O [L -Fuc, L-fucose, reference compound]"
metric = "−ΔH"
experimental_result = 14.2


----------
Target: PHL (Photorhabdus asymbiotica)
Assay: Hemagglutination inhibition assay with PHL (papain-treated human RBCs O)
Type: cell-based
Conditions: hemagglutination; MICbasic unit/(valency × MICligand), basic unit L-Fuc
Each entry below carries its reported β L-Fuc (affinity improvement factor).
METRIC: β L-Fuc (affinity improvement factor)

[[record]]
molecule = "CO[C@@H]1O[C@@H](C)[C@@H](O)[C@@H](O)[C@@H]1O [α-Me-Fuc, methyl α-L-fucopyranoside, reference compound]"
measurement_target = "PHL (Photorhabdus asymbiotica)"
metric = "β L-Fuc (affinity improvement factor)"
experimental_result = 7.8

[[record]]
molecule = "C[C@@H]1O[C@@H](CCN=[N+]=[N-])[C@@H](O)[C@H](O)[C@@H]1O [Azide 1]"
measurement_target = "PHL (Photorhabdus asymbiotica)"
metric = "β L-Fuc (affinity improvement factor)"
experimental_result = 15.6

[[record]]
molecule = "C[C@H](O)[C@@H](O)[C@@H](O)[C@H](O)C=O [L -Fuc, L-fucose, reference compound]"
measurement_target = "PHL (Photorhabdus asymbiotica)"
metric = "β L-Fuc (affinity improvement factor)"
experimental_result = 1

[[record]]
molecule = "C[C@@H]1O[C@@H](CCn2cc(COCC(COCc3cn(CC[C@@H]4O[C@@H](C)[C@@H](O)[C@@H](O)[C@@H]4O)nn3)(COCc3cn(CC[C@@H]4O[C@@H](C)[C@@H](O)[C@@H](O)[C@@H]4O)nn3)COCc3cn(CC[C@@H]4O[C@@H](C)[C@@H](O)[C@@H](O)[C@@H]4O)nn3)nn2)[C@@H](O)[C@H](O)[C@@H]1O [Dendrimer 8]"
measurement_target = "PHL (Photorhabdus asymbiotica)"
metric = "β L-Fuc (affinity improvement factor)"
experimental_result = 15.6

[[record]]
molecule = "C[C@@H]1OC(CCCCC2O[C@@H](C)[C@@H](O)[C@@H](O)[C@@H]2O)[C@@H](O)[C@H](O)[C@@H]1O (some centres unmarked) [Difucoside 5, 1,4-bis(fucopyranosyl)butane]"
measurement_target = "PHL (Photorhabdus asymbiotica)"
metric = "β L-Fuc (affinity improvement factor)"
experimental_result = 7.8


----------
Items are presented alongside their recorded β L-Fuc (affinity improvement factor).
Target: UniProtKB C7BLE4
Assay: SPR competitive inhibition of PHL binding to α-L-fucoside sensor chip
Conditions: IC50,basic unit/(valency × IC50,ligand), basic unit L-Fuc
Procedure: To analyse the competitive inhibition of PHL binding to a multivalent surface, the surface plasmon resonance (SPR) technique was employed. […] To assess the contribution of valency to the affinity increase, an affinity improvement factor β was calculated as the relationship IC50,basic unit/(valency × IC50,ligand)[30]. […] SPR inhibition measurements were carried out on measuring channel with L-fucoside at a flow rate of 5 µl/min. […] IC50 was determined from triplicates.
METRIC: β L-Fuc (affinity improvement factor)

[[record]]
molecule = "C[C@@H]1O[C@@H](CCN=[N+]=[N-])[C@@H](O)[C@H](O)[C@@H]1O [Azide 1]"
experimental_result = 32

[[record]]
molecule = "C[C@@H]1O[C@@H](CCn2cc(COCC(COCc3cn(CC[C@@H]4O[C@@H](C)[C@@H](O)[C@@H](O)[C@@H]4O)nn3)(COCc3cn(CC[C@@H]4O[C@@H](C)[C@@H](O)[C@@H](O)[C@@H]4O)nn3)COCc3cn(CC[C@@H]4O[C@@H](C)[C@@H](O)[C@@H](O)[C@@H]4O)nn3)nn2)[C@@H](O)[C@H](O)[C@@H]1O"
experimental_result = 481


----------
Each item that follows carries a reported −TΔS.
Target: PHL (Photorhabdus asymbiotica)
Experiment: Isothermal titration calorimetry of PHL with ligands
Type: binding
Conditions: ITC at 25 °C
METRIC: −TΔS (kcal/mol)

[[record]]
compound = "C[C@@H]1O[C@@H](CCN=[N+]=[N-])[C@@H](O)[C@H](O)[C@@H]1O [Azide 1]"
metric = "−TΔS"
experimental_result = 4.83

[[record]]
compound = "C[C@H](O)[C@@H](O)[C@@H](O)[C@H](O)C=O [L -Fuc, L-fucose, reference compound]"
metric = "−TΔS"
experimental_result = 10.3

[[record]]
compound = "C[C@@H]1O[C@@H](CCn2cc(COCC(COCc3cn(CC[C@@H]4O[C@@H](C)[C@@H](O)[C@@H](O)[C@@H]4O)nn3)(COCc3cn(CC[C@@H]4O[C@@H](C)[C@@H](O)[C@@H](O)[C@@H]4O)nn3)COCc3cn(CC[C@@H]4O[C@@H](C)[C@@H](O)[C@@H](O)[C@@H]4O)nn3)nn2)[C@@H](O)[C@H](O)[C@@H]1O"
metric = "−TΔS"
experimental_result = 6.84

[[record]]
compound = "C[C@@H]1OC(CCCCC2O[C@@H](C)[C@@H](O)[C@@H](O)[C@@H]2O)[C@@H](O)[C@H](O)[C@@H]1O (stereo partly drawn) [Difucoside 5, 1,4-bis(fucopyranosyl)butane]"
metric = "−TΔS"
experimental_result = 3.61

[[record]]
compound = "CO[C@@H]1O[C@@H](C)[C@@H](O)[C@@H](O)[C@@H]1O [α-Me-Fuc, methyl α-L-fucopyranoside, reference compound]"
metric = "−TΔS"
experimental_result = 9.23

[[record]]
compound = "C[C@@H]1O[C@@H](CCn2cc(COCC(COCc3cn(CC[C@@H]4O[C@@H](C)[C@@H](O)[C@@H](O)[C@@H]4O)nn3)(COCc3cn(CC[C@@H]4O[C@@H](C)[C@@H](O)[C@@H](O)[C@@H]4O)nn3)COCC(COCc3cn(CC[C@@H]4O[C@@H](C)[C@@H](O)[C@@H](O)[C@@H]4O)nn3)(COCc3cn(CC[C@@H]4O[C@@H](C)[C@@H](O)[C@@H](O)[C@@H]4O)nn3)COCc3cn(CC[C@@H]4O[C@@H](C)[C@@H](O)[C@@H](O)[C@@H]4O)nn3)nn2)[C@@H](O)[C@H](O)[C@@H]1O"
metric = "−TΔS"
experimental_result = 10.4


----------
Biological target: PHL (Photorhabdus asymbiotica, UniProt C7BLE4)
Sequence (C7BLE4 entry or part of it): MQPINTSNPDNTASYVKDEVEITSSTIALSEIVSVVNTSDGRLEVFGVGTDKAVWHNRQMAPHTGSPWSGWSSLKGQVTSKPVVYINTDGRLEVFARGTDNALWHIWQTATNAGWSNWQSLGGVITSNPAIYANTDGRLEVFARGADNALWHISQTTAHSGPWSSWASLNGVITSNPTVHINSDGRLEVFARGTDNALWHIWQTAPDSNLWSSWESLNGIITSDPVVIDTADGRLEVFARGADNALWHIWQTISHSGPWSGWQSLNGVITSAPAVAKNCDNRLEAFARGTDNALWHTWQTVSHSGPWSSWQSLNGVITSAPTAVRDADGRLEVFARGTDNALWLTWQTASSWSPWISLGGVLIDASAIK
Test: SPR competitive inhibition of PHL binding to α-L-fucoside sensor chip
Conditions: IC50,basic unit/(valency × IC50,ligand), basic unit L-Fuc
METRIC: β L-Fuc (affinity improvement factor)

[[record]]
compound = "C[C@@H]1O[C@@H](CCn2cc(COc3c4cccc3Cc3cccc(c3OCc3cn(CC[C@@H]5O[C@@H](C)[C@@H](O)[C@@H](O)[C@@H]5O)nn3)Cc3cccc(c3OCc3cn(CC[C@@H]5O[C@@H](C)[C@@H](O)[C@@H](O)[C@@H]5O)nn3)Cc3cccc(c3OCc3cn(CC[C@@H]5O[C@@H](C)[C@@H](O)[C@@H](O)[C@@H]5O)nn3)C4)nn2)[C@@H](O)[C@H](O)[C@@H]1O [Calixarene 7]"
measurement_target = "PHL (Photorhabdus asymbiotica, UniProt C7BLE4)"
metric = "β L-Fuc (affinity improvement factor)"
experimental_result = 508

[[record]]
compound = "C[C@H](O)[C@@H](O)[C@@H](O)[C@H](O)C=O [L -Fuc, L-fucose, reference compound]"
measurement_target = "PHL (Photorhabdus asymbiotica, UniProt C7BLE4)"
metric = "β L-Fuc (affinity improvement factor)"
experimental_result = 1

[[record]]
compound = "C[C@@H]1O[C@@H](CCn2cc(COc3c4cc(C(C)(C)C)cc3Cc3cc(C(C)(C)C)cc(c3OCc3cn(CC[C@@H]5O[C@@H](C)[C@@H](O)[C@@H](O)[C@@H]5O)nn3)Cc3cc(C(C)(C)C)cc(c3OCc3cn(CC[C@@H]5O[C@@H](C)[C@@H](O)[C@@H](O)[C@@H]5O)nn3)Cc3cc(C(C)(C)C)cc(c3OCc3cn(CC[C@@H]5O[C@@H](C)[C@@H](O)[C@@H](O)[C@@H]5O)nn3)C4)nn2)[C@@H](O)[C@H](O)[C@@H]1O [Calixarene 6]"
measurement_target = "PHL (Photorhabdus asymbiotica, UniProt C7BLE4)"
metric = "β L-Fuc (affinity improvement factor)"
experimental_result = 464

[[record]]
compound = "CO[C@@H]1O[C@@H](C)[C@@H](O)[C@@H](O)[C@@H]1O [α-Me-Fuc, methyl α-L-fucopyranoside, reference compound]"
measurement_target = "PHL (Photorhabdus asymbiotica, UniProt C7BLE4)"
metric = "β L-Fuc (affinity improvement factor)"
experimental_result = 9

[[record]]
compound = "C[C@@H]1OC(CCCCC2O[C@@H](C)[C@@H](O)[C@@H](O)[C@@H]2O)[C@@H](O)[C@H](O)[C@@H]1O (some centres unmarked) [Difucoside 5, 1,4-bis(fucopyranosyl)butane]"
measurement_target = "PHL (Photorhabdus asymbiotica, UniProt C7BLE4)"
metric = "β L-Fuc (affinity improvement factor)"
experimental_result = 43

